- Tested on: Klebsiella pneumoniae
- assay.procedure: Antibacterial activity against extended-spectrum beta-lactamase producing Klebsiella pneumoniae 14-17 after 18 to 24 hrs by two-fold serial dilution method
- Format: functional
quantity.name: log10 of MIC (log10 of the value in µg/mL)
The common logarithm of MIC in µg/mL is what is listed.

Challenge: Query (compound): CO/N=C1/CN(c2nc3c(cc2F)c(=O)c(C(=O)O)cn3C2CC2)CC1CNC1CC1 (stereo not drawn) ; field requested: log10 of MIC
Response given: 1.20

Challenge: Entry Nc1nc(-n2cc(C(=O)O)c(=O)c3cc(F)c(N4C/C(=N/OCc5ccccc5)C(CNC5CC5)C4)nc32)c(F)cc1F (stereo not drawn) please
Response given: 2.11

Challenge: Entry CO/N=C1/CN(c2nc3c(cc2F)c(=O)c(C(=O)O)cn3C2CC2)CC1(C)CNC1CC1 (stereo not drawn) please
Response given: 1.81

Challenge: Entry CO/N=C1/CN(c2c(F)cc3c(=O)c(C(=O)O)cn4c3c2OC[C@@H]4C)CC1(C)CNC1CC1 (stereo partly drawn) please
Response given: 1.20

Challenge: Entry CCO/N=C1/CN(c2nc3c(cc2F)c(=O)c(C(=O)O)cn3-c2nc(N)c(F)cc2F)CC1CNC1CC1 (stereo not drawn) please
Response given: 2.11

Challenge: Entry CO/N=C1/CN(c2nc3c(cc2F)c(=O)c(C(=O)O)cn3[C@@H]2C[C@@H]2F)CC1CNC1CC1 (stereo partly drawn) please
Response given: 1.51

Challenge: Entry CO/N=C1/CN(c2c(F)cc3c(=O)c(C(=O)O)cn4c3c2OC[C@@H]4C)CC1CNC1CC1 (stereo partly drawn) please
Response given: 0.60
